# STUDY SYSTEM: Peroxisome proliferator-activated receptor delta (Homo sapiens)
# ASSAY SUMMARY: qHTS assay to identify small molecule antagonists of the peroxisome proliferator-activated receptor delta (PPARd) signaling pathway (AID 743215);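 note: cells stimulated with agonist L165041 at 300 nM final during compound exposure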; note: potency is the fitted concentration of half-maximal effect
# CONDITION: HEK293H PPARd-UAS-bla, beta-lactamase FRET ratio, antagonist, 17 h; series mostly up to 62 µM
Inconclusive results are not listed. Calls of active or inactive are those of the source. Calls come from the whole dose curve; as a rule, active = well fitted inhibition curve with a large enough effect in the signal ratio in the repeat runs (not every such curve was filed as active); inconclusive = weak or mixed curves, or effect the other way; inactive = no such curve, though single readings can be large or run the other way; the % refers to the signal ratio.
MEASURED ENDPOINT: Potency

For orientation, consider the following solved cases.
Request: Consider the compound shown here: CCCCCCCCCBr What is its recorded Potency?
Response: inactive

Request: Consider the compound shown here: CC(C)(C)c1cc([N+](=O)[O-])cc(C(C)(C)C)c1O What is its recorded Potency?
Response: inactive

Request: Consider the compound shown here: CCN(CC)c1c([N+](=O)[O-])cc(C(F)(F)F)c(N)c1[N+](=O)[O-] What is its recorded Potency?
Response: inactive

Request: Consider the compound shown here: CC(C)CCCCCOC(=O)c1ccccc1C(=O)OCCCCCC(C)C What is its recorded Potency?
Response: inactive

Provide the reported Potency of each entry below, same order.
1. C1CCC2CCCCC2C1 (stereo unspecified)
2. CCCN(CCC)c1c([N+](=O)[O-])cc(S(N)(=O)=O)cc1[N+](=O)[O-]
3. c1ccc2c(c1)OCC(C1=NCCN1)O2 (stereo unspecified)
4. O=C(O)c1cc[c]([Hg][Cl])cc1

Response:
1. inactive
2. 58.6 µM (active)
3. 23.7 µM (active)
4. inactive

----------
# ASSAY SUMMARY: qHTS assay to identify small molecule HDAC inhibitors - cell viability counter screen (AID 1259365); note: nearly all actives have a fitted effect of over 50% in size
# CONDITION: HCT-116 viability, CellTiter-Glo ATP luminescence, 2 h; series mostly up to 92.4 µM
Calls of active or inactive are those of the source. Calls follow the shape of the dose curve; as a rule, active = well fitted cell-killing curve with a large enough effect in the repeat runs; inconclusive = weak or mixed curves, or effect the other way; inactive = flat fitted curve, though single readings scatter.
Assign a class; possible classes are Y (active), N (inactive)

Observe how each entry below is paired with its result.
Request: Which outcome was entered for the compound C=CCC1=C(C)C(OC(=O)C2C(C=C(C)C)C2(C)C)CC1=O (stereo not drawn) in this test?
Response: N

Request: Which outcome was entered for the compound Cl/C=C\CCl in this test?
Response: N

Request: Which outcome was entered for the compound CCCCCCCCCCCCCCC(Br)C(=O)O (stereo not drawn) in this test?
Response: N

Request: Which outcome was entered for the compound O=C1C=CC(=O)c2ccccc21 in this test?
Response: Y

Request: Which outcome was entered for the compound COc1cccc(C(=O)CCN[C@@H](C)[C@H](O)c2ccccc2)c1 in this test?
Response: N

Request: Which outcome was entered for the compound CC(C)CCCCCOC(=O)c1ccccc1C(=O)OCCCCCC(C)C in this test?
Response: N

Request: Which outcome was entered for the compound SCc1ccco1 in this test?
Response: N

Request: Which outcome was entered for the compound COP(N)(=S)OC in this test?
Response: N

Request: Which outcome was entered for the compound O=c1c(C2CC(c3ccc(-c4ccc(Br)cc4)cc3)Cc3ccccc32)c(O)sc2ccccc12 (stereo not drawn) in this test?
Response: N

Request: Which outcome was entered for the compound CCC(C)(C)C(=O)OC1=C(c2ccc(Cl)cc2Cl)C(=O)OC12CCCCC2 in this test?
Response: N

Continuing:
Request: Which outcome was entered for the compound COc1ccc(/C(=C/C(=O)N2CCOCC2)c2ccc(Cl)cc2)cc1OC in this test?
Response: N

Request: Which outcome was entered for the compound O=C(CCl)C(Cl)Cl in this test?
Response: N

Request: Which outcome was entered for the compound Cn1[nH]nnc1=S in this test?
Response: N
